Reference source for all entries: patent US20230257351A1

# Assay system: human P2X4 (Homo sapiens, UniProt Q99571)
# Construct: expressed in transfected cells
# Sequence (Q99571 whole entry): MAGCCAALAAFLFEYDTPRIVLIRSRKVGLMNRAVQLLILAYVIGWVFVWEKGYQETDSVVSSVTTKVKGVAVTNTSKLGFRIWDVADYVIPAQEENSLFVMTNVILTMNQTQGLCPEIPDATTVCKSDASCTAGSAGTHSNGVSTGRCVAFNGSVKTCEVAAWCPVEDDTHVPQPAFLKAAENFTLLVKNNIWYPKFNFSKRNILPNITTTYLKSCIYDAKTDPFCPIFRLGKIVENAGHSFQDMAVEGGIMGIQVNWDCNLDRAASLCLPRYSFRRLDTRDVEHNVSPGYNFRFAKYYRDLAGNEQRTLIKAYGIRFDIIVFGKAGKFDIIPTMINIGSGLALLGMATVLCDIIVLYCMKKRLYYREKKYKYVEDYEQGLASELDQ
# Method notes: Human P2X4 HEK Cell FLIPR Assay
# Format: cell-based
# Condition parameters: HEK293 stably expressing human P2X4; agonist Bz-ATP 3 μM (EC80)
Measurement type: Human P2X4 HEK Cells (FLIPR Assay) avg Efficacy (%)
Numbers only, in %.

- Molecule: "CC(=O)N(c1ccc(OC(F)F)cc1)c1cc(NC(=O)Cc2cccc(F)c2Cl)ccn1 [Example 48]"
  Measured result: 99
- Molecule: "CC(=O)N(c1ccc(F)cc1)c1cc(NC(=O)Cc2ccccc2C(F)(F)F)ccn1 [Example 30]"
  Measured result: 98
- Molecule: "CC(=O)N(c1ccc(F)cc1)c1cc(NC(=O)Cc2c(Cl)cc(F)cc2Cl)ccn1 [Example 39]"
  Measured result: 100

Then there is this molecule:
Challenge: May I ask what Human P2X4 HEK Cells (FLIPR Assay) avg Efficacy has been recorded for CC(=O)N(c1cccc(F)c1)c1cc(NC(=O)Cc2c(Cl)cc(F)cc2Cl)ccn1 [Example 57] ?
Response given: 99

----------
For each record, write down the corresponding Rat P2X4 1321N1 Astrocytoma Cells (FLIPR Assay) avg Efficacy.
# Assay system: rat P2X4 (Rattus norvegicus)
# Construct: expressed in transfected cells
# Sequence (P51577 whole entry): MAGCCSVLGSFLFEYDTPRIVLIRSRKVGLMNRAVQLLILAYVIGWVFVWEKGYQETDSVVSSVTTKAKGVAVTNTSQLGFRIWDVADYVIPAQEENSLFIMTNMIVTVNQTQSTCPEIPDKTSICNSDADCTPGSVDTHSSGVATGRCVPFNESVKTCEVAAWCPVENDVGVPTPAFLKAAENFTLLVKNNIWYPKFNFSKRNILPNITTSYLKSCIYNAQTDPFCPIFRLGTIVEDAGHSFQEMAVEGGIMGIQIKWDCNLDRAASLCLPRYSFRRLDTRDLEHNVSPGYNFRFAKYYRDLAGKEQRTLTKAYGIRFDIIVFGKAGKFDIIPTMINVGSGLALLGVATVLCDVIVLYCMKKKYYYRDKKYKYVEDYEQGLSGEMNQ
# Method notes: FLIPR Method for Rat P2X4 1321N1 Astrocytoma Cells
# Type: cell-based
# Condition parameters: 1321N1 stably expressing rat P2X4; agonist MgATP 5 μM (EC80)
Answers are plain numbers, in %.

These solved cases illustrate the format of a correct answer.
- Compound: "CC(=O)N(c1ccc(F)c(F)c1)c1cc(NC(=O)Cc2ccccc2C(F)(F)F)ccn1"
  Measured result: 97
- Compound: "CC(=O)N(c1cc(F)cc(F)c1)c1cc(NC(=O)Cc2cccc(F)c2Cl)ccn1"
  Measured result: 100
- Compound: "CC(=O)N(c1cccc(C#N)c1)c1cc(NC(=O)Cc2c(Cl)cccc2Cl)ccn1"
  Measured result: 98
- Compound: "CC(=O)N(c1ccc(F)c(F)c1)c1cc(NC(=O)Cc2c(C)cc(Cl)cc2Cl)ccn1"
  Measured result: 100

Please state, for each entry, its recorded Rat P2X4 1321N1 Astrocytoma Cells (FLIPR Assay) avg Efficacy.
1. CC(=O)N(c1ccc(F)cc1)c1cc(NC(=O)Cc2cccc(F)c2Cl)ccn1
2. CC(=O)N(c1cc(NC(=O)Cc2ccccc2Cl)ccn1)c1cc(F)ccc1Cl

Response given:
1. 95
2. 100

Give Rat P2X4 1321N1 Astrocytoma Cells (FLIPR Assay) avg Efficacy for each of the items listed below.
1. CC(=O)N(c1cccc(F)c1)c1cc(NC(=O)Cc2ccccc2Cl)ccn1
2. CC(=O)N(c1cc(F)cc(F)c1)c1cc(NC(=O)Cc2c(Cl)cccc2Cl)ccn1

Response given:
1: 97; 2: 98

----------
# Assay system: human P2X4 (Homo sapiens, UniProt Q99571)
# Method notes: Human P2X4 HEK Cell FLIPR Assay
# Condition parameters: HEK293 stably expressing human P2X4; agonist Bz-ATP 3 μM (EC80); read-out: Human P2X4 HEK Cells (FLIPR Assay) avg IC50
# Protocol: Compounds were tested on a HEK293 cell line stably expressing human P2X4. Cells were cultured on poly-D-lysine-coated 384-well plates at a density of 15,000 cells/well and incubated overnight at 37° C., 5% CO2. P2X4 function was assessed by measuring intracellular calcium fluxes caused by Benzoylbenzoyl-ATP (Bz-ATP) using the calcium-chelating dye Fluo8-AM (Molecular Devices) with the Fluorescent Imaging Plate Reader Tetra (FLIPR^Tetra; Molecular Devices CA). […]
Hi there, I'd appreciate the recorded IC50 for every entry that follows.
Numbers only, in nM.

Example entries begin here.
- Compound: "CC(=O)N(c1ccc(F)cc1)c1cc(NC(=O)Cc2cccc(C(F)(F)F)c2Cl)ccn1"
  Unit descriptor: "nM"
  Measured result: 938
- Compound: "CC(=O)N(c1cccc(Cl)c1)c1cc(NC(=O)Cc2c(F)cccc2Cl)ccn1"
  Unit descriptor: "nM"
  Measured result: 281
- Compound: "CC(=O)N(c1ccc(F)c(F)c1)c1cc(NC(=O)Cc2c(C)cc(C)cc2Cl)ccn1"
  Unit descriptor: "nM"
  Measured result: 505
- Compound: "CC(=O)N(c1cc(NC(=O)Cc2c(F)cccc2Cl)ccn1)c1ccc(F)c(C)c1C"
  Unit descriptor: "nM"
  Measured result: 893
- Compound: "CC(=O)N(c1cc(NC(=O)Cc2cccc(F)c2Cl)ccn1)c1ccc(F)cc1F"
  Unit descriptor: "nM"
  Measured result: 184

Provide IC50 for all items below, preserving their order.
1. CC(=O)N(c1ccc(F)c(F)c1)c1cc(NC(=O)Cc2ccc([N+](=O)[O-])cc2Cl)ccn1
2. CC(=O)N(c1cc(NC(=O)Cc2ccccc2Cl)ccn1)c1cccc(F)c1F
3. CC(=O)N(c1cccc(C#N)c1)c1cc(NC(=O)Cc2ccccc2Cl)ccn1

Response given:
816
357
289

Batch: IC50 for all items listed.
1. CC(=O)N(c1ccc(F)cc1)c1cc(NC(=O)Cc2ccccc2OC(F)(F)F)ccn1
2. CC(=O)N(c1cc(NC(=O)Cc2c(Cl)cccc2Cl)ccn1)c1ccc(F)cc1Cl
3. CC(=O)N(c1cccc(F)c1)c1cc(NC(=O)Cc2c(Cl)cc(F)cc2Cl)ccn1
4. CC(=O)N(c1ccc(C)c(Cl)c1)c1cc(NC(=O)Cc2c(F)cccc2Cl)ccn1
5. CC(=O)N(c1cc(F)cc(F)c1)c1cc(NC(=O)Cc2cccc(C)c2C)ccn1

Response given:
1: 350; 2: 441; 3: 377; 4: 599; 5: 350

----------
Please go through the items and note down their Human P2X4 HEK Cells (FLIPR Assay) avg Efficacy.
# Assay system: human P2X4 (Homo sapiens, UniProt Q99571)
# Construct: expressed in transfected cells
# Method notes: Human P2X4 HEK Cell FLIPR Assay
# Assay type: cell-based
# Condition parameters: HEK293 stably expressing human P2X4; agonist Bz-ATP 3 μM (EC80)
One number for each entry, in %.

- Compound: "CC(=O)N(c1cccc(F)c1)c1cc(NC(=O)Cc2ccc(F)cc2Cl)cnn1"
  Assay system: "human P2X4 (Homo sapiens, UniProt Q99571)"
  Unit descriptor: "%"
  Measured result: 96
- Compound: "COc1ccc(CC(=O)Nc2ccnc(N(C(C)=O)c3ccc(F)c(F)c3)c2)c(Cl)c1"
  Assay system: "human P2X4 (Homo sapiens, UniProt Q99571)"
  Unit descriptor: "%"
  Measured result: 88
- Compound: "CC(=O)N(c1cccc(F)c1)c1cc(NC(=O)Cc2c(F)cccc2Cl)cnn1"
  Assay system: "human P2X4 (Homo sapiens, UniProt Q99571)"
  Unit descriptor: "%"
  Measured result: 93
- Compound: "CC(=O)N(c1cc(NC(=O)Cc2ccc(F)cc2Cl)ccn1)c1ccccc1F"
  Assay system: "human P2X4 (Homo sapiens, UniProt Q99571)"
  Unit descriptor: "%"
  Measured result: 97
- Compound: "CC(=O)N(c1ccccc1)c1cc(NC(=O)Cc2ccc(F)cc2Cl)cnn1"
  Assay system: "human P2X4 (Homo sapiens, UniProt Q99571)"
  Unit descriptor: "%"
  Measured result: 98
- Compound: "CC(=O)N(c1ccc(F)c(F)c1)c1cc(NC(=O)Cc2cccc(F)c2Cl)cnn1"
  Assay system: "human P2X4 (Homo sapiens, UniProt Q99571)"
  Unit descriptor: "%"
  Measured result: 89

Please supply Human P2X4 HEK Cells (FLIPR Assay) avg Efficacy for each of the following items, keeping them in order.
1. CCc1cc(Cl)c(CC(=O)Nc2ccnc(N(C(C)=O)c3ccc(F)c(F)c3)c2)c(Cl)c1
2. CC(=O)N(c1cc(NC(=O)Cc2ccc(F)cc2Cl)ccn1)c1ccc(C)cc1C

Response given:
1. 96
2. 103

----------
# Assay system: rat P2X4 (Rattus norvegicus)
# Construct: expressed in transfected cells
# Method notes: FLIPR Method for Rat P2X4 1321N1 Astrocytoma Cells
# Type: cell-based
# Condition parameters: 1321N1 stably expressing rat P2X4; agonist MgATP 5 μM (EC80)
What Rat P2X4 1321N1 Astrocytoma Cells (FLIPR Assay) avg Efficacy was measured for each of the following?
Numbers only, in %.

- Compound: "CC(=O)N(c1cccc(F)c1)c1cc(NC(=O)Cc2c(Cl)cccc2Cl)ccn1"
  Unit descriptor: "%"
  Measured result: 98

I have 5 molecules here; please give me Rat P2X4 1321N1 Astrocytoma Cells (FLIPR Assay) avg Efficacy for each one.
1. CC(=O)N(c1ccc(F)c(F)c1)c1cc(NC(=O)Cc2cccc(F)c2Cl)ccn1
2. COc1cccc(N(C(C)=O)c2cc(NC(=O)Cc3ccccc3Cl)ccn2)c1
3. CC(=O)N(c1cccc(Cl)c1)c1cc(NC(=O)Cc2ccc(F)cc2Cl)ccn1
4. CC(=O)N(c1ccc(F)c(C#N)c1)c1cc(NC(=O)Cc2c(Cl)cccc2Cl)ccn1
5. CC(=O)N(c1cccc(F)c1)c1cc(NC(=O)Cc2ccc(F)cc2Cl)ccn1

Response given:
1. 90
2. 98
3. 97
4. 99
5. 99

Please state Rat P2X4 1321N1 Astrocytoma Cells (FLIPR Assay) avg Efficacy for every molecule in the list that follows.
1. CC(=O)N(c1cc(F)cc(F)c1)c1cc(NC(=O)Cc2ccccc2C(F)(F)F)ccn1
2. CC(=O)N(c1ccc(F)c(Cl)c1)c1cc(NC(=O)Cc2cccc(F)c2Cl)ccn1

Response given:
1: 100; 2: 99
